# measurement-notes: WHO-TDR: Cytotoxicity
# Assay type: toxicity, cell-based
# condition-notes: human, MRC5 cells
Give IC50 for every item shown.

# input compound: `O=C(Cc1cc(-c2ccc(Cl)cc2)on1)Nc1cccnc1` ; wanted: its IC50
# output 1.19 µg/mL

# input compound: CN(CC1CCCO1)S(=O)(=O)c1ccc(C(=O)Nc2nc3cc4c(cc3s2)OCCO4)cc1 (stereo not given) ; wanted: its IC50
# output > 9.82 µg/mL

# input compound: `Cc1cccc(NC(=O)Cn2nc(C(C)C)c3cnn(-c4ccccc4C)c3c2=O)c1` ; wanted: its IC50
# output > 12.5 µg/mL

# input compound: CCOC(=O)N1CCc2c(sc(NC(=O)C3COc4ccccc4O3)c2C(N)=O)C1 (stereo not given) ; wanted: its IC50
# output > 12.9 µg/mL

# input compound: `Cc1cc(C)c2sc(NC(=O)c3nc4ccccc4s3)nc2c1` ; wanted: its IC50
# output > 10.2 µg/mL

###

# measurement-notes: WHO-TDR: Cytotoxicity
# Type: toxicity, cell-based
# condition-notes: human, MRC5 cells
Give IC50 for every item shown.

# input compound: `COc1ccc(-c2cn3c(CCC(=O)NCCc4c[nH]c5ccccc45)csc3n2)cc1` ; wanted: its IC50
# output > 13.3 µg/mL

# input compound: `COc1cccc2sc(Nc3nc(-c4ccncc4)cs3)nc12` ; wanted: its IC50
# output 4.5 µg/mL

# input compound: `CCOC(=O)N1CCc2nc(NC(=O)CCCS(=O)(=O)c3ccc(F)cc3)sc2C1` ; wanted: its IC50
# output > 13.7 µg/mL

# input compound: CN1CCc2cc(C(CNC(=O)COc3ccc(Cl)cc3Cl)N3CCCC3)ccc21 (stereo not drawn) ; wanted: its IC50
# output 11.6 µg/mL

# input compound: O=C(Nc1nc2c(s1)CSc1ccccc1-2)C1CCCN1S(=O)(=O)c1cccs1 (stereo not drawn) ; wanted: its IC50
# output 1.88 µg/mL

# input compound: `O=C(Cc1cccs1)N1CCN(c2nccn2-c2cccc(Cl)c2)CC1` ; wanted: its IC50
# output > 12.7 µg/mL

# input compound: `CN(Cc1ccco1)S(=O)(=O)c1ccc(C(=O)Nc2nnc(-c3ccccc3Cl)o2)cc1` ; wanted: its IC50
# output 0.807 µg/mL

# input compound: `COc1ccc(C(=O)Nc2ccc(SCC(=O)N3CCCC3)nn2)c(OC)c1` ; wanted: its IC50
# output > 12.1 µg/mL

# input compound: COc1ccc(C(=O)C2C(=O)N(c3ccccc3)N=C2C)c(OC)c1 (stereo not drawn) ; wanted: its IC50
# output > 10.2 µg/mL

# input compound: `Cc1ccc(S(=O)(=O)Nc2ccccc2C(=O)Nc2nc3c(s2)Cc2ccccc2-3)cc1` ; wanted: its IC50
# output 2.51 µg/mL

# input compound: `Cc1[nH]c2ccccc2c1S(=O)(=O)CCNC(=O)Nc1ccc(C(F)(F)F)cc1` ; wanted: its IC50
# output > 12.8 µg/mL

# input compound: `O=C(Cc1csc(Nc2ccccc2)n1)NCCc1c[nH]c2ccccc12` ; wanted: its IC50
# output > 11.3 µg/mL

# input compound: `CC(C)c1ccc(NC(=O)c2n[nH]c3ccccc23)cc1` ; wanted: its IC50
# output > 8.38 µg/mL

# input compound: `C#CCn1/c(=N\C(=O)c2cc(C)no2)sc2cc(S(N)(=O)=O)ccc21` ; wanted: its IC50
# output > 11.3 µg/mL

# input compound: CC(CC(=O)N1CCC(Cc2ccccc2)CC1)CC1=Nc2ccccc2S(=O)(=O)N1 (stereo not drawn) ; wanted: its IC50
# output > 13.2 µg/mL

# input compound: `CCN(CC)c1cc(C)nc(Nc2ccc(NC(=O)c3c(F)cccc3F)cc2)n1` ; wanted: its IC50
# output 2.86 µg/mL

# input compound: `COc1ccc(Cl)cc1S(=O)(=O)Nc1ccc2c(c1)CCC(=O)N2CCC(C)C` ; wanted: its IC50
# output > 13.1 µg/mL

# input compound: `O=C(Cc1ccc(Cl)cc1)NCCS(=O)(=O)N1CCN(Cc2ccccc2)CC1` ; wanted: its IC50
# output > 14.2 µg/mL

# input compound: CN1CCc2c(OCC(=O)N3N=C(c4cccs4)CC3c3ccc(F)cc3)cccc2C1=O (stereo not drawn) ; wanted: its IC50
# output > 13.9 µg/mL

# input compound: `O=C(CSc1ccc(NC(=O)c2ccco2)nn1)Nc1ccccc1C(F)(F)F` ; wanted: its IC50
# output > 12.7 µg/mL

# input compound: `CC(C)(C)c1ccc(C(=O)Nc2sccc2C(N)=O)cc1` ; wanted: its IC50
# output 4.3 µg/mL

# input compound: `COC(=O)c1ccccc1N(C)C(=O)c1cc2cccnc2n(C)c1=O` ; wanted: its IC50
# output > 10.5 µg/mL

# input compound: `CCn1ccc(C(=O)Nc2ccc3nc(SC)sc3c2)n1` ; wanted: its IC50
# output > 9.55 µg/mL

# input compound: `Cc1ccc(-c2cc(CC(=O)Nc3cccc(C)n3)no2)cc1` ; wanted: its IC50
# output > 9.22 µg/mL

# input compound: `CCOc1ccc2ccccc2c1C(=O)Nc1cc(C)nn1-c1nc(C)cc(=O)[nH]1` ; wanted: its IC50
# output 0.364 µg/mL

# input compound: Cc1ccc2nc(-c3ccc(NC(=O)CC4CSc5nc(C)cc(=O)n54)cc3)sc2c1 (stereo not drawn) ; wanted: its IC50
# output > 13.5 µg/mL

# input compound: `CC1(C)COc2ccc(NS(=O)(=O)c3cccc4ccccc34)cc2NC1=O` ; wanted: its IC50
# output > 11.9 µg/mL

# input compound: `Cc1ccc(S(=O)(=O)NCCNc2ccc(Nc3cccc(C)n3)nn2)c(C)c1` ; wanted: its IC50
# output > 12.4 µg/mL

# input compound: `CSc1ccccc1-c1nnc(NC(=O)c2ccc(Cl)s2)o1` ; wanted: its IC50
# output > 10.6 µg/mL

# input compound: `COc1cc(OC)cc(C(=O)N(CCCN(C)C)c2nc3c(C)c(C)ccc3s2)c1` ; wanted: its IC50
# output 2.84 µg/mL

# input compound: `O=C(CS(=O)(=O)c1ccc(F)cc1)Nc1onc2c1CCC2` ; wanted: its IC50
# output > 9.73 µg/mL

# input compound: `COc1ccccc1C(=O)N1CCN(c2nccn2-c2ccccc2F)CC1` ; wanted: its IC50
# output > 12.5 µg/mL

# input compound: `O=S(=O)(CCCOc1ccc2c(c1)OCO2)NCCc1c[nH]c2ccccc12` ; wanted: its IC50
# output > 12.1 µg/mL

# input compound: `O=C(NCCNc1ccc(Nc2cccnc2)nn1)c1cccc(C(F)(F)F)c1` ; wanted: its IC50
# output > 12.1 µg/mL

# input compound: `Cc1nc2c(SCC#N)nnc(-c3ccccc3)c2s1` ; wanted: its IC50
# output > 8.95 µg/mL

# input compound: `COc1ccc(C)cc1S(=O)(=O)N1CCN(c2ccc(Nc3cccnc3)nn2)CC1` ; wanted: its IC50
# output 10.3 µg/mL

# input compound: `Cc1ccc(Cn2c(CO)cnc2SCC(=O)Nc2cccc3ccccc23)cc1` ; wanted: its IC50
# output > 12.5 µg/mL

# input compound: `O=C(CC1CCCC1)Nc1nc(CSCc2ccc(F)cc2)cs1` ; wanted: its IC50
# output > 10.9 µg/mL

# input compound: `O=C(Nc1nc(-c2ccccn2)cs1)c1ccc2c(c1)CCCC2` ; wanted: its IC50
# output > 10.1 µg/mL

# input compound: `CCOC(=O)c1oc2ccccc2c1NC(=O)c1cc(C)no1` ; wanted: its IC50
# output > 9.43 µg/mL

# input compound: `O=C(Nc1cccc(-c2ccc3nnc(-c4cccnc4)n3n2)c1)c1ccco1` ; wanted: its IC50
# output > 11.5 µg/mL

# input compound: `Cc1cc2cc(CCNC(=O)C3c4ccccc4Oc4ccccc43)c(O)nc2cc1C` ; wanted: its IC50
# output > 12.7 µg/mL

# input compound: `O=C(CSc1ccc(-c2ccc(-n3cccn3)cc2)nn1)Nc1ccc2c(c1)OCO2` ; wanted: its IC50
# output > 12.9 µg/mL
